# testDescription: enhancers of HSV replication in host cells, fold increase, host cell viability (AID 1956)
# conditionDetails: HSV replication augmentation in cells; measured here: primary screen fold increase 10 uM, at 10 µM, stronger effect = higher value
In all, about 220,000 compounds went through this assay and about 10 (0.005%) were called active. Not all results are given here.
# label = yes (1) if fold increase >= 0.9 else no (0)

[[record]]
compound = "C=CC1C(OC2OC(CO)C(O)C(O)C2O)OC=C(C(=O)OC)C1CC1CC(=O)CC(CC(=O)CCc2ccc(O)cc2)O1 (stereo not given)"
assignedclass = "yes (1)"

[[record]]
compound = "O=C1CC2(CCCC2)Oc2ccc(Cl)cc21"
assignedclass = "no (0)"

[[record]]
compound = "COc1ccc(Nc2cc(=O)n(-c3ccccc3)c3c2c(=O)n(C)c(=O)n3C)cc1"
assignedclass = "yes (1)"

[[record]]
compound = "COc1ccc(CN2[C@@H](CC(=O)O)c3cc(F)ccc3S2(=O)=O)cc1"
assignedclass = "no (0)"

[[record]]
compound = "COC(C[C@@H](O)C[C@@H](O)[C@H](C)OCc1ccccc1)OC"
assignedclass = "yes (1)"


Input: In plain terms: is recorded fold increase at least 0.9 for NC(=O)CC(NC(=O)Cc1cccc2ccccc12)c1ccc(NCc2cc(F)ccc2F)c([N+](=O)[O-])c1 (stereo not given) ?
Output: no (0)
